test system: T1, PSMA Fab (006 PSMA Fab)
T1 construct: also called Anti-PSMA Fab; anti-PSMA Fab
protocol: phage ELISA; biotinylated PSMA Fab on neutravidin plate pre-incubated with PSMA antigen as competitor, clonal phage supernatant, anti-M13 HRP
Where no end group is shown, it is not given here.
Here the recorded Phage binding ELISA signal, Anti-PSMA Fab with PSMA antigen is given for each entry.
Kindly provide the number alone.

Solved cases below.
[
  {
    "binder": "NVPVCIPDWMCVGF [Phage-3250]",
    "readout number": 0.0851
  },
  {
    "binder": "VNVRCEPSWMCTGL [Phage-3243]",
    "readout number": 0.0801
  }
]

Kindly indicate its recorded Phage binding ELISA signal, Anti-PSMA Fab with PSMA antigen. Item: GFRICEPEWMCVGF [Phage-3240]
0.0629

Kindly indicate its recorded Phage binding ELISA signal, Anti-PSMA Fab with PSMA antigen. Item: DSVLCVPSWMCHGF (cysteine pairing not given here; also: fused to phage pIII, fusion site not given here) [Phage-3239]
0.0834

Kindly indicate its recorded Phage binding ELISA signal, Anti-PSMA Fab with PSMA antigen. Item: GVIACKPHWMCTGF [Phage-3251]
0.085

Source: patent US20260242478A1
